# MEASUREMENT TARGET: UniProt:P43115
# ASSAY EXPLANATION: Antagonist activity at human EP3c receptor expressed in human U2OS cells assessed as inhibition of PGE2-induced calcium mobilization after 24 hrs by FLIPR assay
# Type: functional, cell-based
PARAMETER MEASURED: Ki (nM)

MOLECULE	PARAMETER MEASURED	MEASURED VALUE
CC(C)C1(c2ccc(-c3ccc4c(ccn4C)c3)[nH]c2=O)OC(=O)NC1=O (stereo not given)	Ki	6.31

(P) Cc1ccc(-c2ccc(C3(C(C)C)OC(=O)NC3=O)c(=O)[nH]2)cc1C (stereo not given)
(Q) O=C1NC(=O)C(c2ccc(-c3ccc4ccccc4c3)[nH]c2=O)O1 (stereo not given)
*Q* # returns the entry with the larger Ki; inputs P and Q Return value: the label identifying the chosen record.
*A* Q

(a) CC(C)C1(c2ccc(-c3ccc4cccc(F)c4c3)[nH]c2=O)OC(=O)NC1=O (stereo not given)
(b) CC(C)C1(c2ccc(-c3ccc4ccccc4c3)[nH]c2=O)OC(O)=NC1=O (stereo not given)
*Q* For the pair a and b , which member has the lower Ki number? Return value: the label identifying the chosen record.
*A* a

====

# ASSAY EXPLANATION: Aqueous solubility of the compound
# Assay type: physicochemical
# TEST CONDITIONS: buffer
PARAMETER MEASURED: solubility (µM)
Give the number; µM is assumed, so skip it.

*Q* Sample CC(C)C1(c2ccc(-c3ccc4ccccc4c3)[nH]c2=O)OC(O)=NC1=O (stereo unspecified) — what was its solubility?
*A* 193

====

# MEASUREMENT TARGET: UniProt:P08684
# Sequence (P08684 whole entry): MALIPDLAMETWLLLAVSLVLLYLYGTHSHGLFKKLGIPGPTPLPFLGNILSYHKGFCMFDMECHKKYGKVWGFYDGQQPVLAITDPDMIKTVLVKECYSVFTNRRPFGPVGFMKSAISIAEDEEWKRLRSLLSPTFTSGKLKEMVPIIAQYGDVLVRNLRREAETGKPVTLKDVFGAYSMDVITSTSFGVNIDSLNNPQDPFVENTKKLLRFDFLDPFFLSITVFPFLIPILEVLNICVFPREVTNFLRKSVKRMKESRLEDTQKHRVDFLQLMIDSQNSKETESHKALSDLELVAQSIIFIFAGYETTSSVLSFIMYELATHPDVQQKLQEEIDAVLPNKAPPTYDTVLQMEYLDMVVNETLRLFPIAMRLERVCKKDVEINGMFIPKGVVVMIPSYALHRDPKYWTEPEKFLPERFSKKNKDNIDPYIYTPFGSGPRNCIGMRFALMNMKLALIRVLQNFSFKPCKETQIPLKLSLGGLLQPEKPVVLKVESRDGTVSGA
PARAMETER MEASURED: IC50

*Q* Sample CC(C)C1(c2ccc(-c3ccc4ccccc4c3)[nH]c2=O)OC(O)=NC1=O (stereo unspecified) — what was its IC50?
*A* > 50.1 µM

====

# MEASUREMENT TARGET: Prostaglandin E2 receptor EP3 subtype (Homo sapiens, UniProt P43115)
# Sequence (P43115 whole entry): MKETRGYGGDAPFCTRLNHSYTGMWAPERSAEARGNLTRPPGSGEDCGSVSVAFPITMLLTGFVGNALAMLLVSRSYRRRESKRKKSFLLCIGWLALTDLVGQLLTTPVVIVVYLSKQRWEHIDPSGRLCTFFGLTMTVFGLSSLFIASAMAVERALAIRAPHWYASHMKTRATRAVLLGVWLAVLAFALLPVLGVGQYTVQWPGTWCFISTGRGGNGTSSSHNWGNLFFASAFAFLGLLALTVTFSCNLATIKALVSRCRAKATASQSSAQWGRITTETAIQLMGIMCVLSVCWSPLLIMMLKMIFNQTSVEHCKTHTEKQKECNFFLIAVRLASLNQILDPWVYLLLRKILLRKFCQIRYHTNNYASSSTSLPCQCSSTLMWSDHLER
# ASSAY EXPLANATION: Binding affinity to human EP3
PARAMETER MEASURED: Ki (nM)
Give the number; nM is assumed, so skip it.

*Q* Sample CC(C)C1(c2ccc(-c3ccc4ccccc4c3)[nH]c2=O)OC(O)=NC1=O (stereo unspecified) — what was its Ki?
*A* 5.01
